- TARGET_DESC: T1, mouse IL-2Rα (mouse) (UniProt P01590)
- T1 sequence (looked up): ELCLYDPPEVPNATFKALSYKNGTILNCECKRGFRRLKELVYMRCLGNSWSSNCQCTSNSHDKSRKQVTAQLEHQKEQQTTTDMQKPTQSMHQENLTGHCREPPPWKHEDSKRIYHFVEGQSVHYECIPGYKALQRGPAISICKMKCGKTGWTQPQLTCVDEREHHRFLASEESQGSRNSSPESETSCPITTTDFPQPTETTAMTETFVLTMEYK
- EXPERIMENT_NOTES: ELISA, P.E. on coated antigen
ENDPOINT_NAME: OD (PE binding ELISA) (OD450 nm)

[[record]]
binder = "2-MP01A02 (VHH) VHH: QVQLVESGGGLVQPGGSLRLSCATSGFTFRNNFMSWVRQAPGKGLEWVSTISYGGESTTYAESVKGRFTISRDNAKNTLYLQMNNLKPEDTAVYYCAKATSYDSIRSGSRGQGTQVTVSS"
endpoint_name = "OD (PE binding ELISA)"
result_unit = "OD450 nm"
assay_result = 0.046

[[record]]
binder = "6-MP01G05 (VHH) VHH: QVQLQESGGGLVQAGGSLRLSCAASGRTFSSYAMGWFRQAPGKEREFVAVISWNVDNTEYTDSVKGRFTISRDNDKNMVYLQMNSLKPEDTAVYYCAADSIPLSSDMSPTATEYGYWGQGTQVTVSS"
endpoint_name = "OD (PE binding ELISA)"
result_unit = "OD450 nm"
assay_result = 0.046

[[record]]
binder = "FJ1427_P035MP01E02 (VHH) VHH: QVQLVESGGGLVQAGDSLRLSCAASGRSFRNYILAWYRQAPGKEREFLAAISWLDGTLYADSVEDRFTISRDNPKNTVHLQMDNLKPEDTAVYYCAADRGPVRPVLAPDVDYWGQGTQVTVSS"
endpoint_name = "OD (PE binding ELISA)"
result_unit = "OD450 nm"
assay_result = 0.046

